Molecular target: GABAA (α1β2γ2s) receptors (UniProt P14867+P18508+P63138)
Sequence (P14867 28-456): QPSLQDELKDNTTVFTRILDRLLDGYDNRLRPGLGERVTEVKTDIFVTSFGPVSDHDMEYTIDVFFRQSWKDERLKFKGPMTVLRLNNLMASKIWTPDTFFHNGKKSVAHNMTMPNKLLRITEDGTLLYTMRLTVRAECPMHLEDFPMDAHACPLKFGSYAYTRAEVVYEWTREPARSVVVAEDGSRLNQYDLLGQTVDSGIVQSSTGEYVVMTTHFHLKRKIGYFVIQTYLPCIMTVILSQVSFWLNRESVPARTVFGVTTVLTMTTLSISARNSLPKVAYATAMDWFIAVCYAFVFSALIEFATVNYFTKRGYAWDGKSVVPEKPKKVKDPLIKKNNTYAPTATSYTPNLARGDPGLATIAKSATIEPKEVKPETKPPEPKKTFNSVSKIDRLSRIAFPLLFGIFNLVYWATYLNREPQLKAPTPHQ
Sequence (P63138 25-474 limits assumed): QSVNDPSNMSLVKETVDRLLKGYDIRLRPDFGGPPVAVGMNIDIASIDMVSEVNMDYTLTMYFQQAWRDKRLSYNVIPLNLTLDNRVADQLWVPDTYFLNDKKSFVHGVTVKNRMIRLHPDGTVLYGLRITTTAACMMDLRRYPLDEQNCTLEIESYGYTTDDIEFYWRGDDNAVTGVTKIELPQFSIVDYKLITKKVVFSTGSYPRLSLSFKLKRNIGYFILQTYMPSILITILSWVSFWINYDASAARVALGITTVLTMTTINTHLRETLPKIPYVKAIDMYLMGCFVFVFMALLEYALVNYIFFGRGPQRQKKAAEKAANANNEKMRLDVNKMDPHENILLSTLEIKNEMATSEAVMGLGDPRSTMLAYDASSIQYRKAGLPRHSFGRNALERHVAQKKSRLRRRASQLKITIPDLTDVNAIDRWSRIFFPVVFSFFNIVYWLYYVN
Sequence (P18508 39-466): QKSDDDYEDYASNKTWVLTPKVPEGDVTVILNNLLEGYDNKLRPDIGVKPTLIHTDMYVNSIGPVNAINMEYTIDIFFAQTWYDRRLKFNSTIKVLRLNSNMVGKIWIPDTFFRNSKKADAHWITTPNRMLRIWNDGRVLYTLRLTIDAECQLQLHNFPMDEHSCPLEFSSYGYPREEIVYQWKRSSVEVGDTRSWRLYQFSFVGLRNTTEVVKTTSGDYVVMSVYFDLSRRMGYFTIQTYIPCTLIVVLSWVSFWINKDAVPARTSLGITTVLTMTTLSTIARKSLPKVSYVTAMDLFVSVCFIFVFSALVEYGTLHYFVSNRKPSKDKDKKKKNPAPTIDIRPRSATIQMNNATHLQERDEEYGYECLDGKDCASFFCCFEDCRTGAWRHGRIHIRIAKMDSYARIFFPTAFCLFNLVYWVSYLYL
Test: Oocyte two-electrode voltage clamp, GABAA receptor currents
Details: saturating aqueous concentration
QUANTITY_KIND: GABAA receptor modulation (in words)

> print(dat)
                                   compound    reported.result
1  FC1CC(F)(F)C(F)(F)C1(F)F (stereo not shown) [HFCP, 1,1,2,2,3,3,4-heptafluorocyclopentane]  potentiates GABAA
2  FC1C(F)C(F)(F)C(F)(F)C1(F)F (stereo not shown) [1,1,2,2,3,3,4,5-octafluorocyclopentane]  potentiates GABAA

Reference for the values: patent US9757353B2
